- test.details: Chelation study by ESI-MS, Fe^2+ solution
- Assay type: binding
- assay.context: 10:1 metal:compound, 45 minutes of mixing
assay.metric: % Parent Peak Remaining at 10:1 Solution of Metal:Compound (%)
# number only, unit % dropped from output

Below: 7 molecules and their reported % Parent Peak Remaining at 10:1 Solution of Metal:Compound.
[[record]]
entry_smiles = "CN(C)S(=O)(=O)N1C(=O)CN(c2ncccn2)CC1=O"
experimental_value = 8.1

[[record]]
entry_smiles = "COc1nc(N2CC(=O)N(S(=O)(=O)N(C)C)C(=O)C2)nc(OC)c1O"
experimental_value = 7.5

[[record]]
entry_smiles = "CN(C)S(=O)(=O)N1CCN(c2ncccn2)CC1"
experimental_value = 100.0

[[record]]
entry_smiles = "COc1cc(OC)nc(N2CCN(S(=O)(=O)N(C)C)CC2)n1"
experimental_value = 100.0

[[record]]
entry_smiles = "CN(C)S(=O)(=O)N1C(=O)CN(c2ncc(O)cn2)CC1=O"
experimental_value = 6.9

[[record]]
entry_smiles = "COc1nc(N2CCN(S(=O)(=O)N(C)C)CC2)nc(OC)c1O"
experimental_value = 100.0

[[record]]
entry_smiles = "CN(C)S(=O)(=O)N1CCN(c2ncc(O)cn2)CC1"
experimental_value = 100.0


Moving on to another molecule below.
Q) What value of % Parent Peak Remaining at 10:1 Solution of Metal:Compound has been reported for the following molecule? `COc1cc(OC)nc(N2CC(=O)N(S(=O)(=O)N(C)C)C(=O)C2)n1`
A) 7.3

###

- test.details: Chelation study by ESI-MS, Cu^1+ solution
- Type: binding
- assay.context: 10:1 metal:compound, 45 minutes of mixing
Catalogue of % Parent Peak Remaining at 10:1 Solution of Metal:Compound values
# number only, unit % dropped from output

Below: 3 compounds and their reported % Parent Peak Remaining at 10:1 Solution of Metal:Compound.
[[record]]
compound = "CN(C)S(=O)(=O)N1C(=O)CN(c2ncc(O)cn2)CC1=O [JHX-4]"
experimental_value = 4.2

[[record]]
compound = "COc1cc(OC)nc(N2CC(=O)N(S(=O)(=O)N(C)C)C(=O)C2)n1 [JHX-7]"
experimental_value = 4.1

[[record]]
compound = "COc1cc(OC)nc(N2CCN(S(=O)(=O)N(C)C)CC2)n1 [JHX-5]"
experimental_value = 100.0


Q) What value of % Parent Peak Remaining at 10:1 Solution of Metal:Compound has been reported for the following compound? COc1nc(N2CC(=O)N(S(=O)(=O)N(C)C)C(=O)C2)nc(OC)c1O [JHX-8]
A) 4.0

Q) What value of % Parent Peak Remaining at 10:1 Solution of Metal:Compound has been reported for the following compound? COc1nc(N2CCN(S(=O)(=O)N(C)C)CC2)nc(OC)c1O [JHX-6]
A) 100.0

Q) What value of % Parent Peak Remaining at 10:1 Solution of Metal:Compound has been reported for the following compound? CN(C)S(=O)(=O)N1CCN(c2ncc(O)cn2)CC1 [JHX-2]
A) 100.0

Q) What value of % Parent Peak Remaining at 10:1 Solution of Metal:Compound has been reported for the following compound? CN(C)S(=O)(=O)N1CCN(c2ncccn2)CC1 [JHX-1]
A) 100.0

Q) What value of % Parent Peak Remaining at 10:1 Solution of Metal:Compound has been reported for the following compound? CN(C)S(=O)(=O)N1C(=O)CN(c2ncccn2)CC1=O [JHX-3]
A) 3.6

###

- test.details: Chelation study by ESI-MS, Cu^2+ solution
- Format: binding
- assay.context: 10:1 metal:compound, 45 minutes of mixing
assay.metric: % Parent Peak Remaining at 10:1 Solution of Metal:Compound (%)
# number only, unit % dropped from output

Below: 2 compounds and their reported % Parent Peak Remaining at 10:1 Solution of Metal:Compound.
[[record]]
entry_smiles = "CN(C)S(=O)(=O)N1CCN(c2ncccn2)CC1"
experimental_value = 100.0

[[record]]
entry_smiles = "CN(C)S(=O)(=O)N1C(=O)CN(c2ncc(O)cn2)CC1=O"
experimental_value = 3.0


Moving on to another compound below.
Q) What value of % Parent Peak Remaining at 10:1 Solution of Metal:Compound has been reported for the following compound? `COc1nc(N2CC(=O)N(S(=O)(=O)N(C)C)C(=O)C2)nc(OC)c1O`
A) 3.6

###

- test.details: Chelation study by ESI-MS, Fe^3+ solution
- Assay type: binding
- assay.context: 10:1 metal:compound, 45 minutes of mixing
assay.metric: % Parent Peak Remaining at 10:1 Solution of Metal:Compound (%)
# number only, unit % dropped from output

Below: 4 compounds and their reported % Parent Peak Remaining at 10:1 Solution of Metal:Compound.
[[record]]
entry_smiles = "CN(C)S(=O)(=O)N1CCN(c2ncc(O)cn2)CC1"
value_unit = "%"
experimental_value = 100.0

[[record]]
entry_smiles = "CN(C)S(=O)(=O)N1CCN(c2ncccn2)CC1"
value_unit = "%"
experimental_value = 100.0

[[record]]
entry_smiles = "CN(C)S(=O)(=O)N1C(=O)CN(c2ncc(O)cn2)CC1=O"
value_unit = "%"
experimental_value = 8.2

[[record]]
entry_smiles = "COc1cc(OC)nc(N2CCN(S(=O)(=O)N(C)C)CC2)n1"
value_unit = "%"
experimental_value = 100.0


Moving on to another compound below.
Q) What value of % Parent Peak Remaining at 10:1 Solution of Metal:Compound has been reported for the following compound? `COc1nc(N2CCN(S(=O)(=O)N(C)C)CC2)nc(OC)c1O`
A) 100.0

###

- test.details: Chelation study by ESI-MS, Zn^2+ solution
- Assay type: binding
- assay.context: 10:1 metal:compound, 45 minutes of mixing
assay.metric: % Parent Peak Remaining at 10:1 Solution of Metal:Compound
Please state the number and follow it with the unit.

Q) What value of % Parent Peak Remaining at 10:1 Solution of Metal:Compound has been reported for the following compound? `CN(C)S(=O)(=O)N1C(=O)CN(c2ncccn2)CC1=O`
A) 15.3%

Q) What value of % Parent Peak Remaining at 10:1 Solution of Metal:Compound has been reported for the following compound? `COc1nc(N2CCN(S(=O)(=O)N(C)C)CC2)nc(OC)c1O`
A) 100.0%

Q) What value of % Parent Peak Remaining at 10:1 Solution of Metal:Compound has been reported for the following compound? `CN(C)S(=O)(=O)N1CCN(c2ncc(O)cn2)CC1`
A) 100.0%

###

Catalogue of % Parent Peak Remaining at 10:1 Solution of Metal:Compound values
- test.details: Chelation study by ESI-MS, Cu^2+ solution
- Format: binding
- assay.context: 10:1 metal:compound, 45 minutes of mixing
# number only, unit % dropped from output

Q) What value of % Parent Peak Remaining at 10:1 Solution of Metal:Compound has been reported for the following molecule? `COc1cc(OC)nc(N2CCN(S(=O)(=O)N(C)C)CC2)n1`
A) 100.0

###

- test.details: Chelation study by ESI-MS, Fe^3+ solution
- Type: binding
- assay.context: 10:1 metal:compound, 45 minutes of mixing
assay.metric: % Parent Peak Remaining at 10:1 Solution of Metal:Compound

Q) What value of % Parent Peak Remaining at 10:1 Solution of Metal:Compound has been reported for the following compound? `COc1nc(N2CC(=O)N(S(=O)(=O)N(C)C)C(=O)C2)nc(OC)c1O`
A) 8.2%

Q) What value of % Parent Peak Remaining at 10:1 Solution of Metal:Compound has been reported for the following compound? `COc1cc(OC)nc(N2CC(=O)N(S(=O)(=O)N(C)C)C(=O)C2)n1`
A) 7.6%

Q) What value of % Parent Peak Remaining at 10:1 Solution of Metal:Compound has been reported for the following compound? `CN(C)S(=O)(=O)N1C(=O)CN(c2ncccn2)CC1=O`
A) 10.0%

###

Catalogue of % Parent Peak Remaining at 10:1 Solution of Metal:Compound values
- test.details: Chelation study by ESI-MS, Zn^2+ solution
- Type: binding
- assay.context: 10:1 metal:compound, 45 minutes of mixing
# number only, unit % dropped from output

Below: 4 compounds and their reported % Parent Peak Remaining at 10:1 Solution of Metal:Compound.
[[record]]
entry_smiles = "COc1nc(N2CC(=O)N(S(=O)(=O)N(C)C)C(=O)C2)nc(OC)c1O"
value_unit = "%"
experimental_value = 14.6

[[record]]
entry_smiles = "COc1cc(OC)nc(N2CCN(S(=O)(=O)N(C)C)CC2)n1"
value_unit = "%"
experimental_value = 100.0

[[record]]
entry_smiles = "COc1cc(OC)nc(N2CC(=O)N(S(=O)(=O)N(C)C)C(=O)C2)n1"
value_unit = "%"
experimental_value = 13.8

[[record]]
entry_smiles = "CN(C)S(=O)(=O)N1CCN(c2ncccn2)CC1"
value_unit = "%"
experimental_value = 100.0


Moving on to another compound below.
Q) What value of % Parent Peak Remaining at 10:1 Solution of Metal:Compound has been reported for the following compound? `CN(C)S(=O)(=O)N1C(=O)CN(c2ncc(O)cn2)CC1=O`
A) 12.7
